# EC50 per record follows
- Assayed target: Hepatocyte Growth Factor (HGF), human (human, UniProt P14210 32-728)
- Sequence (P14210 32-728): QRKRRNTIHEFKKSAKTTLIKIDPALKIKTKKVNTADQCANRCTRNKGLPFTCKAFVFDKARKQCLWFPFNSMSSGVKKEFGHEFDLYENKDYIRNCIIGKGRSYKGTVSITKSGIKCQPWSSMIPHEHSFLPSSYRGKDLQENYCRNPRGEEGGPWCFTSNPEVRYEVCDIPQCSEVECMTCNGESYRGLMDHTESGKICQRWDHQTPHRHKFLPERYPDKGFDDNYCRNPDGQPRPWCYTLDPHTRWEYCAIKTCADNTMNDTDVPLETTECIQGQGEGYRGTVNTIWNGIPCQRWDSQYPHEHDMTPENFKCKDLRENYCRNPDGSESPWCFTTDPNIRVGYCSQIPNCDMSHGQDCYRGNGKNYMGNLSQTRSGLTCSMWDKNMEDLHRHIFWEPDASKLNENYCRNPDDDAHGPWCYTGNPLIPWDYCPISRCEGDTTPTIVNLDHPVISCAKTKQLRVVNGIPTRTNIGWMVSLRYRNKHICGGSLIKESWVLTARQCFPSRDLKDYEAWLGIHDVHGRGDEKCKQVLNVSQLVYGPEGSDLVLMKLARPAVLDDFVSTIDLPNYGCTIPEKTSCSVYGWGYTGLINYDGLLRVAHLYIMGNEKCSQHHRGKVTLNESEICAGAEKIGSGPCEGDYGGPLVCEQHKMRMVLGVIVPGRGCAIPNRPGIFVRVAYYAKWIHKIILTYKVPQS
- Test details: ELISA
Report as a plain number; the unit nM is understood.

HC 5/SLC 7 (antibody) chain 1: GQGTLVTVSSASTKGQPVLHQPPAMSSALGTTIRLTCTLRNDHDIGVYSVYWYQQRPGHPPRFLLRYFSQSDKSQGPQVPPRFSGSKDVARNRGYLSISELQPEDEAMYYCAMGARSRCWPRGFQSKHNSVTHVFGSGTQLTVLSQPKATPSVTLFPPSSEELQANKATLVCLMNDFYPGILTVTWKADGTPITQGVEMTTPSKQSNNKYAASSYLSLTPEQWRSRRSYSCQVMHEGSTVEKTVAPAECS chain 2: MSWAPVLLMLFVYCTGCGPQPVLHQPPAMSSALGTTIRLTCTLRNDHDIGVYSVYWYQQRPGHPPRFLLRYFSQSDKSQGPQVPPRFSGSKDVARNRGYLSISVTHVFGSGTQLTVLSQPKATPQVQLVQ = 0.056
HC 6/SLC 8 (antibody) chain 1: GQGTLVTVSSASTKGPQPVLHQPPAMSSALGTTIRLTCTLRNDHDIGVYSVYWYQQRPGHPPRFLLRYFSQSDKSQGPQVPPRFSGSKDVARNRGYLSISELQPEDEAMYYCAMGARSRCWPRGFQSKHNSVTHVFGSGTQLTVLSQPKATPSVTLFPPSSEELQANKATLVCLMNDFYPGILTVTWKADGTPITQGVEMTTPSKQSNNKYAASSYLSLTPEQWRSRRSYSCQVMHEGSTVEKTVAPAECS chain 2: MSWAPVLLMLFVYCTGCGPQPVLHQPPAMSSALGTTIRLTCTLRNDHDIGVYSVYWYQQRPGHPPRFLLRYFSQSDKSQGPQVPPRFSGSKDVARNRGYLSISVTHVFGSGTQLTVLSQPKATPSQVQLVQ = 0.059
HC 3/SLC 7 (antibody) chain 1: GQGTLVTVSSASTQPVLHQPPAMSSALGTTIRLTCTLRNDHDIGVYSVYWYQQRPGHPPRFLLRYFSQSDKSQGPQVPPRFSGSKDVARNRGYLSISELQPEDEAMYYCAMGARSRCWPRGFQSKHNSVTHVFGSGTQLTVLSQPKATPSVTLFPPSSEELQANKATLVCLMNDFYPGILTVTWKADGTPITQGVEMTTPSKQSNNKYAASSYLSLTPEQWRSRRSYSCQVMHEGSTVEKTVAPAECS chain 2: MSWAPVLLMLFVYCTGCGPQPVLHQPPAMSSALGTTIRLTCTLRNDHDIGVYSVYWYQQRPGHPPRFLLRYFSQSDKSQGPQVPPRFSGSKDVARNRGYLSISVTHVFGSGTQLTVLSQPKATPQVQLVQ = 0.054
HC 3/SLC 4 (antibody) chain 1: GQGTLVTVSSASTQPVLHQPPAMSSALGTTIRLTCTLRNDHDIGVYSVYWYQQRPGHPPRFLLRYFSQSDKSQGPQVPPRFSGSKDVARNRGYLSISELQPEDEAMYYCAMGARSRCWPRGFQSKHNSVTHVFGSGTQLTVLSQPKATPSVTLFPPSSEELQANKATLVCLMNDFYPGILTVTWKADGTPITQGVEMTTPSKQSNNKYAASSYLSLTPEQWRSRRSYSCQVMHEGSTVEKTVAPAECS chain 2: MSWAPVLLMLFVYCTGCGPQPVLHQPPAMSSALGTTIRLTCTLRNDHDIGVYSVYWYQQRPGHPPRFLLRYFSQSDKSQGPQVPPRFSGSKDVARNRGYLSISVTHVFGSGTQLTVLSQPKQVQLVQ = 0.067
HC 10/SLC 9 (antibody) chain 1: GQGTLVTVSSASTKGPSVFPQPVLHQPPAMSSALGTTIRLTCTLRNDHDIGVYSVYWYQQRPGHPPRFLLRYFSQSDKSQGPQVPPRFSGSKDVARNRGYLSISELQPEDEAMYYCAMGARSRCWPRGFQSKHNSVTHVFGSGTQLTVLSQPKATPSVTLFPPSSEELQANKATLVCLMNDFYPGILTVTWKADGTPITQGVEMTTPSKQSNNKYAASSYLSLTPEQWRSRRSYSCQVMHEGSTVEKTVAPAECS chain 2: MSWAPVLLMLFVYCTGCGPQPVLHQPPAMSSALGTTIRLTCTLRNDHDIGVYSVYWYQQRPGHPPRFLLRYFSQSDKSQGPQVPPRFSGSKDVARNRGYLSISVTHVFGSGTQLTVLSQPKATPSVQVQLVQ = 0.053

Next up:
For HC 3/SLC 2 (antibody) chain 1: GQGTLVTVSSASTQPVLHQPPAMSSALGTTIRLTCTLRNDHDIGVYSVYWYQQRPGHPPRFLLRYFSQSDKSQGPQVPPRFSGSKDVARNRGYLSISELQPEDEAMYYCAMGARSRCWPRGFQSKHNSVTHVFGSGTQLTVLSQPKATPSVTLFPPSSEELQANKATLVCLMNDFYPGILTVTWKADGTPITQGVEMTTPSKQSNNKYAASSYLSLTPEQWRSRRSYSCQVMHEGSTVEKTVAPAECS chain 2: MSWAPVLLMLFVYCTGCGPQPVLHQPPAMSSALGTTIRLTCTLRNDHDIGVYSVYWYQQRPGHPPRFLLRYFSQSDKSQGPQVPPRFSGSKDVARNRGYLSISVTHVFGSGTQLTVLSQQVQLVQ , what is its reported EC50?
0.053

Cited source: patent US20150045540A1
